Overview of reported zone of inhibition at 10 µM across a group of compounds:
test system: Pseudomonas aeruginosa; assay: Antipseudomonal activity against Pseudomonas aeruginosa PAO581 in Pseudomonas isolation agar assessed as bacterial growth inhibition at 10 uM by disk diffusion assay; format: functional; conditions: read-out: DIZ
Numbers only here, please. The scale is mm.

O=C([O-])c1cn(C2CC2)c2cc(N3CCNCC3)c(F)cc2c1=O.[K+]    26
O=C(O)CCCC(=O)N1CCN(c2cc3c(cc2F)c(=O)c(C(=O)O)cn3C2CC2)CC1    0
CCn1cc(C(=O)O)c(=O)c2cc(F)c(N3CCNC(C)C3)c(F)c21 (centres undefined)    15

# input for lookup
Query block: Reported zone of inhibition at 10 µM for `O=C([O-])c1ccccc1C(=O)N1CCN(c2cc3c(cc2F)c(=O)c(C(=O)[O-])cn3C2CC2)CC1.[K+].[K+]` : what is it?
Result block: 13
